test system: K562/ADM (K562 cells over-expressing MDR-1); experiment: In vitro proliferation/cytotoxicity assay, MDR-1 overexpressing K562/ADM cells; type: cell-based, human; conditions: Homo sapiens; K562/ADM cells; read-out: IC50
OBSERVATION TYPE: IC50 (nM)
Please give a number only; it is taken to be in nM.

What value of IC50 has been recorded for this entry: COc1cccc2c1C(=O)c1c(O)c3c(c(O)c1C2=O)C[C@@](O)(C(=O)CO)C[C@@H]3O[C@H]1C[C@H](N)[C@H](O)[C@H](C)O1 [adriamycin]
1250

All figures here come from patent US20090099197A1.
